assay.name: clinical
recorded.conditions: human, in vivo, 2.4 mg
Where a name gives a salt, the structure may show the parent alone.
parameter.measured: concentration at 120 h (ng/mL)
Numbers only, in ng/mL.

# input Quick check: concentration at 120 h of O=C1CC[C@@]2(O)[C@H]3Cc4ccc(O)c5c4[C@@]2(CCN3CC2CC2)[C@H]1O5 [Naltrexone HCl Solution] ?
# output 0

====

assay.name: clinical
recorded.conditions: human, in vivo, 2.4 mg
Counter-ions that a name gives are not always drawn.
parameter.measured: concentration at 12 h (ng/mL)
Numbers only, in ng/mL.

# input I have this compound here, O=C1CC[C@@]2(O)[C@H]3Cc4ccc(O)c5c4[C@@]2(CCN3CC2CC2)[C@H]1O5 [Naltrexone HCl Solution] , and I need its recorded concentration at 12 h.
# output 0.0205
